Data origin: patent US20260035382A1

# systemTested: UniProt Q9UBT2
# assayRemarks: In vitro inhibitory activity assay against SAE (SUMO-2/3 immunofluorescence in HCT116 cells)
# Type: cell-based
# testConditions: 6 h incubation, numeric values, read-out: SUMO IF IC50
valueType: IC50 (nM)
Report the figure in nM without appending any unit label.

Query: What IC50 value was documented for this molecule, [2H]C1([2H])CN[C@]2(CCCc3sc(C(=O)c4cncnc4N[C@@H]4C[C@H](COS(N)(=O)=O)[C@@H](O)C4)cc32)c2cc(Cl)ccc21 [Compound 201] ?
Result: 26.5

Query: Then this molecule: NS(=O)(=O)OC[C@H]1C[C@@H](Nc2ncncc2C(=O)c2cc3c(s2)CC[C@]32NCCc3ccc(Cl)cc32)C[C@@H]1O [Compound 48]
Result: 41

Query: Likewise for NS(=O)(=O)OC[C@H]1C[C@@H](Nc2ncncc2C(=O)c2cc3c(s2)CSC[C@]32NCCc3ccc(Cl)cc32)C[C@@H]1O [Compound 93] ?
Result: 28.9

Query: Moving on to the next molecule: NS(=O)(=O)OC[C@H]1C[C@@H](Nc2ncncc2C(=O)c2cc3c(s2)CC[C@]32NCCc3ccccc32)C[C@@H]1O [Compound 45]
Result: 125

Query: # iterate: CC(C)N1Cc2sc(C(=O)c3cncnc3N[C@@H]3C[C@H](COS(N)(=O)=O)[C@@H](O)C3)cc2[C@]2(C1)NCCc1ccc(Cl)cc12 [Compound 186]
Result: 16.3

Query: And for CN1Cc2sc(C(=O)c3cncnc3N[C@@H]3C[C@H](COS(N)(=O)=O)[C@@H](O)C3)cc2[C@]2(C1)NCCc1ccc(Cl)cc12 [Compound 114] ?
Result: 22.8

Query: Same thing, different molecule: NS(=O)(=O)OC[C@H]1C[C@@H](Nc2ncncc2C(=O)c2cc3c(s2)C=C[C@]32NCCc3ccc(Cl)cc32)C[C@@H]1O [Compound 176]
Result: 23.2

Query: // repeat for CCN1Cc2sc(C(=O)c3cncnc3N[C@@H]3C[C@H](COS(N)(=O)=O)[C@@H](O)C3)cc2[C@]2(C1)NCCc1ccc(Cl)cc12 [Compound 183] and report
Result: 18.7

Query: Follow-up item: C#CCN1Cc2sc(C(=O)c3cncnc3N[C@@H]3C[C@H](COS(N)(=O)=O)[C@@H](O)C3)cc2[C@]2(C1)NCCc1ccc(Cl)cc12 [Compound 195]
Result: 21.3

Query: Then this molecule: [2H]C1([2H])Cc2ccc(Cl)cc2[C@@]2(CCCc3sc(C(=O)c4cncnc4N[C@@H]4C[C@H](COS(N)(=O)=O)[C@@H](O)C4)cc32)N1 [Compound 198]
Result: 28.8

Query: Now this one: NS(=O)(=O)OC[C@H]1C[C@@H](Nc2ncncc2C(=O)c2cc3c(s2)COC[C@]32NCCc3ccc(F)cc32)C[C@@H]1O [Compound 18]
Result: 104

---

Exercise: for every item that follows, state its recorded IC50.
# systemTested: SAE (Homo sapiens (Human), UniProt Q9UBT2)
# Sequence (Q9UBT2 whole entry): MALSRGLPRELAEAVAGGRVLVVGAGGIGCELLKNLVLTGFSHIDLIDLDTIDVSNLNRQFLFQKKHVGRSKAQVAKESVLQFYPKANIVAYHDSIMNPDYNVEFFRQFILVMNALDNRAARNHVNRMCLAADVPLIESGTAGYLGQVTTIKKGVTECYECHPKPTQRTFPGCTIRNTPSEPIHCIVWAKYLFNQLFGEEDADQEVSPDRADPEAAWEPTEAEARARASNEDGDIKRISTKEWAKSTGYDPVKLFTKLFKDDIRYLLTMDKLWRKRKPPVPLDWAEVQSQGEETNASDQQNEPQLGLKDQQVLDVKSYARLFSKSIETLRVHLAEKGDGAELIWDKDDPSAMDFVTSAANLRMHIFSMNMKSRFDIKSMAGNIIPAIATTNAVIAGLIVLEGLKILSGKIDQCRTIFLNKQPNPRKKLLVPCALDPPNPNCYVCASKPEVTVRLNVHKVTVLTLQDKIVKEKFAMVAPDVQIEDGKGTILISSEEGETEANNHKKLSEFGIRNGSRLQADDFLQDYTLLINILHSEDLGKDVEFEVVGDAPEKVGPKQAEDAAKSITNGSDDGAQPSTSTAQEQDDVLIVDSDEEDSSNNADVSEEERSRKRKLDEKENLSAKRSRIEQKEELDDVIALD
# Sequence (Q9UBE0 whole entry partner): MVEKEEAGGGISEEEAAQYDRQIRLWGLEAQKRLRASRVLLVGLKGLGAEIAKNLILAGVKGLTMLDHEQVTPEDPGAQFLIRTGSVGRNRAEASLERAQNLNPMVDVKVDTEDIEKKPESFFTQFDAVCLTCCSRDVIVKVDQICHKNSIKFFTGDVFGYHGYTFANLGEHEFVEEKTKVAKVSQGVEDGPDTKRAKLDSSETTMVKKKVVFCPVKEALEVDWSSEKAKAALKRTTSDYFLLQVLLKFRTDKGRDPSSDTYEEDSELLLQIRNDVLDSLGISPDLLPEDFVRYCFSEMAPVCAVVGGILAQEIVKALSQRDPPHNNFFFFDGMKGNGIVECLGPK
# assayRemarks: In vitro inhibitory activity assay against SAE (SUMO-2/3 immunofluorescence in HCT116 cells)
# Type: cell-based
# testConditions: 6 h incubation, class symbols, read-out: SUMO IF IC50

Query: Would you kindly share the measured IC50 for NS(=O)(=O)OC[C@H]1C[C@@H](Nc2ncncc2C(=O)c2cc3c(s2)CN(C2CC2)CC32OCCc3ccc(Cl)cc32)C[C@@H]1O (stereo partly drawn) [Compound 277] ?
Result: 50 to 200 nM

Query: Try this compound too: N#Cc1ccc2c(c1)[C@@]1(CCc3sc(C(=O)c4cncnc4N[C@@H]4C[C@H](COS(N)(=O)=O)[C@@H](O)C4)cc31)NCC2 [Compound 54]
Result: 50 to 200 nM

Query: How about this compound: N#Cc1ccc2c(c1)[C@@]1(CCc3sc(C(=O)c4cncnc4N[C@@H]4C[C@H](COS(N)(=O)=O)[C@@H](O)C4)cc31)OCC2 [Compound 288]
Result: ≤ 50 nM

---

# assayRemarks: In vivo pharmacokinetic experiment, intravenous administration
# testConditions: mouse, 2 mg/kg, CD-1 female mice, 2 mpk, plasma
Assignment: determine reported clearance for the given molecules.
Could you give me the number in mL/min/kg? Just the number is fine.

Query: Sample NS(=O)(=O)OC[C@H]1C[C@@H](Nc2ncncc2C(=O)c2cc3c(s2)COC[C@]32NCCc3ccc(Cl)cc32)C[C@@H]1O [Compound 21] — what was its clearance?
Result: 21.1

Query: Could you do the same for NS(=O)(=O)OC[C@H]1C[C@@H](Nc2ncncc2C(=O)c2cc3c(s2)CC[C@]32NCCc3ccc(Cl)cc32)C[C@@H]1O [Compound 48] , please?
Result: 44

Query: What would you report for NS(=O)(=O)OC[C@H]1C[C@@H](Nc2ncncc2C(=O)c2cc3c(s2)CCC[C@]32NCCc3ccc(F)cc32)C[C@@H]1O [Compound 9] ?
Result: 56.9

Query: Param item: NS(=O)(=O)OC[C@H]1C[C@@H](Nc2ncncc2C(=O)c2cc3c(s2)CCC[C@]32NCCc3ccc(Cl)cc32)C[C@@H]1O [Compound 6]
Result: 36.9

---

# systemTested: SAE (Homo sapiens (Human))
# assayRemarks: In vitro inhibitory activity assay against SAE (SUMO-2/3 immunofluorescence in HCT116 cells)
# Type: cell-based
# testConditions: 6 h incubation, class symbols, read-out: SUMO IF IC50
pIC50: −log10 of the molar value.
valueType: pIC50

Query: Look up pIC50 for this molecule: NS(=O)(=O)OC[C@H]1C[C@@H](Nc2ncncc2C(=O)c2cc3c(s2)CC[C@]32NCCc3cc(F)c(Cl)c(F)c32)C[C@@H]1O
Result: ≥ 7.30

Query: Next molecule up: N#Cc1ccc2c(c1)C1(CCCc3sc(C(=O)c4cncnc4N[C@@H]4C[C@H](COS(N)(=O)=O)[C@@H](O)C4)cc31)OCC2 (stereo partly drawn)
Result: 6.70 to 7.30

Query: Next molecule: NS(=O)(=O)OC[C@H]1C[C@@H](Nc2ncncc2C(=O)c2cc3c(s2)COCC32NCCc3cc(Cl)c(Cl)cc32)C[C@@H]1O (stereo partly drawn)
Result: 6.70 to 7.30

---

# systemTested: SAE (Homo sapiens (Human), UniProt Q9UBT2)
# assayRemarks: In vitro inhibitory activity assay against SAE (SUMO-2/3 immunofluorescence in HCT116 cells)
# Type: cell-based
# testConditions: 6 h incubation, class symbols, read-out: SUMO IF IC50
pIC50: −log10 of the molar value.
I'd appreciate it if you could supply pIC50 values for the items below.

Query: Form field: reported pIC50 of NS(=O)(=O)OC[C@H]1C[C@@H](Nc2ncncc2C(=O)c2cc3c(s2)CC=C[C@]32NCCc3ccc(Cl)cc32)C[C@@H]1O
Result: ≥ 7.30

Query: Also check NS(=O)(=O)OC[C@H]1C[C@@H](Nc2ncncc2C(=O)c2cc3c(s2)COC[C@@]32NCCc3ccccc32)C[C@@H]1O
Result: < 6.70

Query: Now consider NS(=O)(=O)OC[C@H]1C[C@@H](Nc2ncncc2C(=O)c2cc3c(s2)COC[C@@]32NCCc3c(Cl)cc(Cl)cc32)C[C@@H]1O and answer again.
Result: < 6.70

Query: Next compound up: NS(=O)(=O)OC[C@H]1C[C@@H](Nc2ncncc2C(=O)c2cc3c(s2)COC[C@@]32NCCc3ccc(Cl)c(Cl)c32)C[C@@H]1O
Result: < 6.70

Query: Now consider NS(=O)(=O)OC[C@H]1C[C@@H](Nc2ncncc2C(=O)c2cc3c(s2)C=CC[C@]32NCCc3ccc(Cl)cc32)C[C@@H]1O .
Result: ≥ 7.30

Query: What do you have for NS(=O)(=O)OC[C@H]1C[C@@H](Nc2ncncc2C(=O)c2cc3c(s2)OCC[C@]32NCCc3ccc(Cl)cc32)C[C@@H]1O ?
Result: 6.70 to 7.30

---

# systemTested: SAE (Homo sapiens (Human), UniProt Q9UBT2)
# assayRemarks: In vitro inhibitory activity assay against SAE (SUMO-2/3 immunofluorescence in HCT116 cells)
# Format: cell-based
# testConditions: 6 h incubation, class symbols, read-out: SUMO IF IC50
valueType: IC50

Query: Return IC50 measured with SAE (Homo sapiens (Human), UniProt Q9UBT2) given this molecule: NS(=O)(=O)OC[C@H]1C[C@@H](Nc2ncncc2C(=O)c2cc3c(s2)CCC[C@]32NCCc3cc(F)c(F)cc32)C[C@@H]1O [Compound 206]
Result: ≤ 50 nM

Query: // same read-out, input: NS(=O)(=O)OC[C@H]1C[C@@H](Nc2ncncc2C(=O)c2cc3c(s2)CCC[C@]32OCCc3ccc(F)cc32)C[C@@H]1O [Compound 249]
Result: ≤ 50 nM

Query: For NS(=O)(=O)OC[C@H]1C[C@@H](Nc2ncncc2C(=O)c2cc3c(s2)CC[C@@]32OCCc3ccc(Cl)cc32)C[C@@H]1O [Compound 242] then?
Result: > 200 nM

Query: Next record, please: NS(=O)(=O)OC[C@H]1C[C@@H](Nc2ncncc2C(=O)c2cc3c(s2)CCCC32NCC3(CC3)c3ccc(Cl)cc32)C[C@@H]1O (stereo partly drawn) [Compound 39]
Result: 50 to 200 nM

Query: Then this molecule: NS(=O)(=O)OC[C@H]1C[C@@H](Nc2ncncc2C(=O)c2cc3c(s2)OCC32NCCc3ccc(F)cc32)C[C@@H]1O (stereo partly drawn) [Compound 58]
Result: > 200 nM

Query: Try the molecule N#Cc1ccc2c(c1)[C@]1(CCCc3sc(C(=O)c4cncnc4N[C@@H]4C[C@H](COS(N)(=O)=O)[C@@H](O)C4)cc31)OCC2 [Compound 251]
Result: > 200 nM
